Just for reference, PubChem BioAssay is where these values come from.

Items are presented alongside their recorded composite z-score.
target: Neurogenic locus notch homolog protein 3 (Homo sapiens) (UniProt Q9UM47); experiment: small molecules binding NOTCH3 protein – biochemical, 635/667 nm fluorescence, primary screen (AID 1096); conditions: small-molecule microarray, 635 nm fluorescence, higher = more signal
Sequence (Q9UM47 whole entry, looked up): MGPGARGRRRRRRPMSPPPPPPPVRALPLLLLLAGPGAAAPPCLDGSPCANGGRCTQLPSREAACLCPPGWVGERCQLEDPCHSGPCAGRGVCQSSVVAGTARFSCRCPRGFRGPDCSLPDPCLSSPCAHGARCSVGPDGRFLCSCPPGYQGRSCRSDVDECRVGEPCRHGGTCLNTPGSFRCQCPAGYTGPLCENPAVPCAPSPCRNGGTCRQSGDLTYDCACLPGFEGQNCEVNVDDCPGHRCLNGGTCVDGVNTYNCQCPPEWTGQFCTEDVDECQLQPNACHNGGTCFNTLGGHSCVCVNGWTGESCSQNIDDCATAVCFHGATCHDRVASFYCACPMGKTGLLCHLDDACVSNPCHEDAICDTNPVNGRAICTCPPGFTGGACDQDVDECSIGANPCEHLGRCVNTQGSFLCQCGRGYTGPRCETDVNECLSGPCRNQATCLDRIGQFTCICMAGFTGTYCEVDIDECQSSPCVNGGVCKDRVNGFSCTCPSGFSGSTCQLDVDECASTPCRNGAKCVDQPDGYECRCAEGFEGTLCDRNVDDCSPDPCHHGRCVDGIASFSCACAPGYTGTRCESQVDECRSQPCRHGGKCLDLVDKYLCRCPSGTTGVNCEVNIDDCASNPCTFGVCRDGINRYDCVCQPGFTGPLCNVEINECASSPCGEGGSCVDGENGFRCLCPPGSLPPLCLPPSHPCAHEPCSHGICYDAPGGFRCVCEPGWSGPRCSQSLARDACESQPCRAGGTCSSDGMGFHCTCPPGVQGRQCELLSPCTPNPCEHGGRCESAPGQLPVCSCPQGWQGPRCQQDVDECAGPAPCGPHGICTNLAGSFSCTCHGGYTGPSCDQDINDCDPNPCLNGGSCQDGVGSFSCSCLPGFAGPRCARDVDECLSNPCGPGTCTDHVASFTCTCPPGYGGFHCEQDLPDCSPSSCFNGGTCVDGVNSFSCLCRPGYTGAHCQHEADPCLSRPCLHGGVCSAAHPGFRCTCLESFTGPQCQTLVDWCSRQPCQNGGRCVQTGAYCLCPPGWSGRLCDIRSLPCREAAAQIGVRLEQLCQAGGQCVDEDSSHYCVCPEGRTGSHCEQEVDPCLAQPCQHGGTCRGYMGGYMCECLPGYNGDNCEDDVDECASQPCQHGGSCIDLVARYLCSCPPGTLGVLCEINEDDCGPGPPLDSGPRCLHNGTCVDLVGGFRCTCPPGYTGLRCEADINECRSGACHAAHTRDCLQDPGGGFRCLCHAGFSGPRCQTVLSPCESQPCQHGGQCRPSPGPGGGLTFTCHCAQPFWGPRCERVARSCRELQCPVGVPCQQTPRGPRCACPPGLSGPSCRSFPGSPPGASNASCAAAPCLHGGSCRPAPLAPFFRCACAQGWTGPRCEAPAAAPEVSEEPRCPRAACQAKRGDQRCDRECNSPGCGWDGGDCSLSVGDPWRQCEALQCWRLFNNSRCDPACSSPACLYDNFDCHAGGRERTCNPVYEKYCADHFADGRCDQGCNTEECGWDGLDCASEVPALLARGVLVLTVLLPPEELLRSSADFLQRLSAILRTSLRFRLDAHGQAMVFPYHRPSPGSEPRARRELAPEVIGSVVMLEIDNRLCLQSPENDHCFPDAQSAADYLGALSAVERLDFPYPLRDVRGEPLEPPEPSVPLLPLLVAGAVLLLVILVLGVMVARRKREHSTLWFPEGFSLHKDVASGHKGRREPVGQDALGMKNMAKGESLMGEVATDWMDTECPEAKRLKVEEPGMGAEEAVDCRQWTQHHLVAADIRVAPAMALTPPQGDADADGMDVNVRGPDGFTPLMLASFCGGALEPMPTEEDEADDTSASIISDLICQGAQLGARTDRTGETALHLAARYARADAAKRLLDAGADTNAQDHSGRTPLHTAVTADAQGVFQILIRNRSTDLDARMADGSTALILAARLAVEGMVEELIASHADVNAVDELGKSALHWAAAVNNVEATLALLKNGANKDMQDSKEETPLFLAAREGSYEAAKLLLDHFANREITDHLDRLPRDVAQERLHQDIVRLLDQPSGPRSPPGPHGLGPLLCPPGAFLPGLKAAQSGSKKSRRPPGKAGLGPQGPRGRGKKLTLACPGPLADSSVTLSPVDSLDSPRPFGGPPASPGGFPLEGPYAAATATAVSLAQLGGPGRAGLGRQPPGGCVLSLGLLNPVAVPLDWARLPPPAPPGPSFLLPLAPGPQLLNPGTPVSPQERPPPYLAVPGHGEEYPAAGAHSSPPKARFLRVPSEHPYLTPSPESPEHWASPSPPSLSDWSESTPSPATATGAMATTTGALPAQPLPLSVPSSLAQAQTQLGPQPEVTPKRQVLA
assay metric: composite z-score

[[record]]
molecule = "[N-]=[N+]=Nc1ccccc1[C@@H]1OC(c2ccc(OCCCO)cc2)=N[C@]1(CCS(=O)(=O)c1ccccc1)C(=O)O"
measured_number = 1.01

[[record]]
molecule = "C=C(COC)/C(=C/C[C@H](OC(C)=O)c1ccccc1OCCO)c1cnc2ccccc2c1"
measured_number = 0.76

[[record]]
molecule = "Cc1ccc(C(C)CC(O)C2C=CC3C(=O)NC(=O)C3N2Nc2ccccn2)o1 (centres undefined)"
measured_number = -0.233

[[record]]
molecule = "COC(=O)C(CC#Cc1ccc2c(c1)[C@]1(C(=O)N2)[C@H](C(=O)N2CCCCCCC2)[C@H]2C(=O)O[C@H](c3ccccc3)[C@H](c3ccccc3)N2[C@@H]1c1ccccc1OCCO)C(=O)OC"
measured_number = 1.02


* * *

experiment: budding yeast growth modifiers under rapamycin – strain BY4716, OD600, 96 h, primary screen (AID 1091); also: test concentration not given here; details: S. cerevisiae BY4716 + rapamycin, higher = more signal, called active from +8 up or from −8 down
assay metric: z-score

[[record]]
molecule = "C=C(COC)C(=O)CC[C@H](OC(=O)c1cccnc1)c1ccccc1OCCO"
measured_number = -0.278

[[record]]
molecule = "C=C(C(=O)CC[C@@H](OC(C)=O)c1ccc(OCCO)cc1)C(C)C"
measured_number = -0.423

[[record]]
molecule = "C[N+](C)(C)CCCC[C@@H]1NC(=O)[C@H]2C[C@@H](C(=O)O)[C@@H](c3cccc(OCCO)c3)N2C1=O"
measured_number = -0.498

[[record]]
molecule = "O=C1OCCC=C[C@H]2OC34C=CCN(c5ccc6ccccc6c5)C(=O)[C@H]3N(CCCCCCO)C(=O)[C@@H]4C12 (stereo partly drawn)"
measured_number = 0.22

[[record]]
molecule = "O=C(NCC(O)CO)[C@@]1(Cc2ccccc2)N=C(c2ccc(OCCCO)cc2)O[C@H]1c1ccccc1 (stereo partly drawn)"
measured_number = -1.26

[[record]]
molecule = "COc1cc2c(cc1O)C(c1ccc(CN3CCCC3)cc1)N(Cc1sc3ccccc3c1Cl)CC2 (stereo not drawn)"
measured_number = -1.1

[[record]]
molecule = "O=C1OCC=C[C@H]2OC34C=CCN(c5ccc(Cl)cc5)C(=O)[C@H]3N(CCCO)C(=O)[C@@H]4[C@@H]12 (stereo partly drawn)"
measured_number = 0.0814

[[record]]
molecule = "COCCOC(=O)N1C(=O)[C@@]2(c3cc(C#CCC(C(=O)OC)C(=O)OC)ccc31)[C@H](c1ccc(OCCO)cc1)N1[C@H](c3ccccc3)[C@H](c3ccccc3)OC(=O)[C@H]1[C@@H]2C(=O)NC[C@H](O)c1ccccc1"
measured_number = 7.38


* * *

Items are presented alongside their recorded composite z-score.
system: Human papillomavirus type 1a E7 protein (residues 1-88); assay: HPV1a E7 small-molecule binders, primary screen, biochemical, small-molecule microarray, residues 1-88, 635 nm (AID 1129); conditions: small-molecule microarray binding, fluorescence 635 nm; higher = more signal
assay metric: composite z-score

[[record]]
compound = "C=CCN1Cc2ccccc2C[C@@]2(COC(c3ccc(OCCCO)cc3)=N2)C1=O"
assay_metric = "composite z-score"
measured_number = 1.2

[[record]]
compound = "O=C1C[C@@](C(=O)O)(c2ccc([N+](=O)[O-])cc2)[C@@H](c2ccc(CO)cc2I)N1C1CCCCC1"
assay_metric = "composite z-score"
measured_number = 0.796

[[record]]
compound = "CCN(CC)c1ccc(N2CC=CC34O[C@@H]5/C=C\\CCCOC(=O)C5[C@H]3C(=O)N(CCCO)[C@@H]4C2=O)cc1 (stereo partly drawn)"
assay_metric = "composite z-score"
measured_number = -0.231

[[record]]
compound = "C#C[C@H]1Oc2ccccc2S(=O)(=O)N2CCC[C@@H]12"
assay_metric = "composite z-score"
measured_number = -0.704

[[record]]
compound = "CC1CC/C=C\\[C@H]2OC34C=CCN(Cn5nnc6ccccc65)C(=O)[C@H]3N(CCCO)C(=O)[C@@H]4C2C(=O)O1 (stereo partly drawn)"
assay_metric = "composite z-score"
measured_number = -0.326

[[record]]
compound = "C=CCCN(CC#C[C@H]1Oc2ccccc2S(=O)(=O)N2CCC[C@@H]12)S(=O)(=O)c1ccc(C)cc1"
assay_metric = "composite z-score"
measured_number = 0.136

[[record]]
compound = "Cc1ccc(S(=O)(=O)N2CC(C(=O)O)=CCC2c2ccccc2)cc1 (stereo not drawn)"
assay_metric = "composite z-score"
measured_number = -0.2

[[record]]
compound = "CC(C)[C@H]1COC(=O)N1C(=O)[C@H]1[C@@H](c2ccccc2)N(c2ccccc2)O[C@@H]1C"
assay_metric = "composite z-score"
measured_number = 0.706

